Data origin, for the record: ChEMBL document CHEMBL5291721

Measured AC50 by item
Biological target: UniProt P21397
Sequence (P21397 whole entry): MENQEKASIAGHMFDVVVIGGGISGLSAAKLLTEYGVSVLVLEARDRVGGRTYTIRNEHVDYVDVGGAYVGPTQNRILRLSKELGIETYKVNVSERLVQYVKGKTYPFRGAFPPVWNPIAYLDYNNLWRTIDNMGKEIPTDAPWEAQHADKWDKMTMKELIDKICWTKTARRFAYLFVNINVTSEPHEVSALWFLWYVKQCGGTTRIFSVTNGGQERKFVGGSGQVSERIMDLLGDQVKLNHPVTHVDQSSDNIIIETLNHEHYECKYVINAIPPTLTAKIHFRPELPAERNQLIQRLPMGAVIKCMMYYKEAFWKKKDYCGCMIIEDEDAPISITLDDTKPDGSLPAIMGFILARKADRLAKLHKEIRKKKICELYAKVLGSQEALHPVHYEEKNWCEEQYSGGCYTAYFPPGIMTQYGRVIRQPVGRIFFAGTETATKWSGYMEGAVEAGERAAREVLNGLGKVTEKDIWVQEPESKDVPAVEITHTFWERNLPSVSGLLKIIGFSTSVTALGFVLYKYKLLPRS
Format: functional

Example entries begin here.
compound="CCN(CC)Cc1nccn1-c1ccc([N+](=O)[O-])cc1C(=O)c1ccccc1Cl [NIZOFENONE]" target_of_assay="UniProt P21397" result="> 30 µM"
compound="Cn1cnc2c(F)c(Nc3ccc(Br)cc3F)c(C(=O)NOCCO)cc21 [BINIMETINIB]" target_of_assay="UniProt P21397" result="> 30 µM"
compound="Nc1ccc(S(=O)(=O)Nc2ncccn2)cc1 [SULFADIAZINE]" target_of_assay="UniProt P21397" result="> 10 µM"
compound="CCCCOC(=O)c1ccc(N)cc1 [BUTAMBEN]" target_of_assay="UniProt P21397" result="> 30 µM"
compound="OCC(O)COc1ccc(Cl)cc1 (centres undefined)" target_of_assay="UniProt P21397" result="> 10 µM"

The record that follows has no AC50 shown yet.
According to the records, this compound COc1cc2c(cc1OC)C1CC(=O)C(CC(C)C)CN1CC2 (centres undefined) [TETRABENAZINE] displays AC50 of > 30 µM

###

Where a SMILES comes first, the peptide text is derived from it.
Let's go through some AC50 measurements on UniProt P35367 together.
Sequence (P35367 whole entry): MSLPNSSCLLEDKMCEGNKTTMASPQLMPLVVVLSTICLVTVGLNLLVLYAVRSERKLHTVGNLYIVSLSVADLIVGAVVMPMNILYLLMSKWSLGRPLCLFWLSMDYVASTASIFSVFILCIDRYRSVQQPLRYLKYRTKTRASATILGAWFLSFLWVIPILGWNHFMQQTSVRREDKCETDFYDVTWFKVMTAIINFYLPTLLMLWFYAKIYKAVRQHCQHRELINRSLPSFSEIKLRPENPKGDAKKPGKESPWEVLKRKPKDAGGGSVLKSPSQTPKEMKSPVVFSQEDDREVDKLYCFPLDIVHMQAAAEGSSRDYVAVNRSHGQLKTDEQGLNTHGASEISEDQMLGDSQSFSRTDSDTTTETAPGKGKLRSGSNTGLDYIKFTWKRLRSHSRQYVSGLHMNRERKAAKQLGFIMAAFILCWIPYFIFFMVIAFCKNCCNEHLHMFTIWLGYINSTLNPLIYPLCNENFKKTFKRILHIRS

Example entries begin here.
compound="Cc1ccc(O)c([C@H](CCN(C(C)C)C(C)C)c2ccccc2)c1 [TOLTERODINE]" result="4.06 µM"
compound="C[C@H](N)C(=O)N[C@@H](CCC(N)=O)C(=O)O [ALANYL GLUTAMINE] (H-Ala-Gln-OH)" result="> 30 µM"
compound="CO[C@@H]1[C@@H](OC(N)=O)[C@@H](O)[C@H](Oc2ccc3c(O)c(NC(=O)c4ccc(O)c(CC=C(C)C)c4)c(=O)oc3c2C)OC1(C)C [NOVOBIOCIN]" result="> 30 µM"
compound="CC(C)/N=c1\\cc2n(-c3ccc(Cl)cc3)c3ccccc3nc-2cc1Nc1ccc(Cl)cc1 [CLOFAZIMINE]" result="8.56 µM"
compound="CCOc1ccccc1OCCN[C@H](C)Cc1ccc(OC)c(S(N)(=O)=O)c1 [TAMSULOSIN]" result="> 10 µM"

The observed AC50 for CCC(=O)[C@@]1(C)[C@H](C)C[C@H]2[C@@H]3CCC4=CC(=O)C=C[C@]4(C)[C@H]3[C@@H](O)C[C@@]21C [RIMEXOLONE] when tested with UniProt P35367 stands at > 10 µM

The observed AC50 for N[C@@H](Cc1cc(I)c(Oc2cc(I)c(O)c(I)c2)c(I)c1)C(=O)O [LEVOTHYROXINE] when tested with UniProt P35367 stands at > 30 µM

###

Target: Prostaglandin G/H synthase 1 (Rattus norvegicus, UniProt Q63921); note: assay procedure not described here
Sequence (Q63921 whole entry): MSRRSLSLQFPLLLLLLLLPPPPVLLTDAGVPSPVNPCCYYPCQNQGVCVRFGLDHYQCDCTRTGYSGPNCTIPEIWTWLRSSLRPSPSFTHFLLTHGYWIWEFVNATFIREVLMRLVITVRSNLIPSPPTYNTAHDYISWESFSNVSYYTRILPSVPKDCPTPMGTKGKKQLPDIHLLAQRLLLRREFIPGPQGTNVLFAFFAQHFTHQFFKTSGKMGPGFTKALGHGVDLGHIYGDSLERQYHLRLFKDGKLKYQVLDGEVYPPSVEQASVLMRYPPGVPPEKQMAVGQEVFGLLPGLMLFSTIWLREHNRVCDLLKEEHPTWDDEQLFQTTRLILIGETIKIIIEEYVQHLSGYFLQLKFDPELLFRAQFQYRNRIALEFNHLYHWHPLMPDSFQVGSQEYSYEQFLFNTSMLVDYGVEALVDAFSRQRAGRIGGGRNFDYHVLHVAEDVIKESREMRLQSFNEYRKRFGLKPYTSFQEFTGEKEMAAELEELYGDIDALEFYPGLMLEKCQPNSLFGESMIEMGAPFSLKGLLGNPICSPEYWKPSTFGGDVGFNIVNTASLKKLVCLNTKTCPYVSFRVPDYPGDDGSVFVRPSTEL
Format: functional
Measured metric: AC50

compound="CCOC(=O)C1=C(C)NC(C)=C(C(=O)OC)C1c1cccc(Cl)c1Cl (centres undefined) [FELODIPINE]" result="> 30 µM"
compound="CC(=O)N1CCN(c2ccc(OCC3COC(Cn4ccnc4)(c4ccc(Cl)cc4Cl)O3)cc2)CC1 (centres undefined) [KETOCONAZOLE]" result="> 10 µM"
compound="CN(Cc1ccc(C(C)(C)C)cc1)Cc1cccc2ccccc12 [BUTENAFINE]" result="> 10 µM"
compound="CN(C)CCOC(=O)C(c1ccccc1)C1(O)CCCC1 (centres undefined) [CYCLOPENTOLATE]" result="> 10 µM"
compound="CCN(CC)CC(=O)Nc1c(C)cccc1C [LIDOCAINE]" result="> 30 µM"

According to the records, this compound Nc1nc(Cl)nc2c1ncn2[C@@H]1O[C@H](CO)[C@@H](O)[C@@H]1F [CLOFARABINE] displays AC50 of > 30 µM

According to the records, this compound O=C(O)[C@H]1/C(=C/CO)O[C@@H]2CC(=O)N21 [CLAVULANIC ACID] displays AC50 of > 30 µM

According to the records, this compound Cc1ccc(-c2ncc(Cl)cc2-c2ccc(S(C)(=O)=O)cc2)cn1 [ETORICOXIB] displays AC50 of > 30 µM

According to the records, this compound CCC(=O)O[C@H](CC(=O)O)C[N+](C)(C)C [LEVOCARNITINE PROPIONATE] displays AC50 of > 30 µM

###

Let's go through some AC50 measurements on D(3) dopamine receptor (Homo sapiens, UniProt P35462) together.
Sequence (P35462 whole entry): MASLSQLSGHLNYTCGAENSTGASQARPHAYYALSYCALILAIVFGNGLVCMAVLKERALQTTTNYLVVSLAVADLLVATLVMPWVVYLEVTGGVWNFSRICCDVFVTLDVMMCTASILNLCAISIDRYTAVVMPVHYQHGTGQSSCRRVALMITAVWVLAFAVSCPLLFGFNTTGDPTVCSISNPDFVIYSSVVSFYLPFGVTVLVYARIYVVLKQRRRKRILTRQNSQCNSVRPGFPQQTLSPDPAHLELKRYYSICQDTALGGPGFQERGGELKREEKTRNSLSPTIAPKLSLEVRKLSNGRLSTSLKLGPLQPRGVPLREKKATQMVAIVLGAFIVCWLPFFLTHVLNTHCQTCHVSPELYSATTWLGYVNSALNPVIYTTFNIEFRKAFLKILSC

Example entries begin here.
compound=CC1(C)S[C@@H]2[C@H](NC(=O)[C@H](NC(=O)c3cnc4cccnc4c3O)c3ccccc3)C(=O)N2[C@H]1C(=O)O result="> 30 µM"
compound=O=C(O)[C@H](O)[C@@H](O)[C@H](O)[C@H](O)CO result="> 30 µM"
compound=COCC(=O)O[C@]1(CCN(C)CCCc2nc3ccccc3[nH]2)CCc2cc(F)ccc2[C@@H]1C(C)C result="0.825 µM"
compound="CC(NCCC(c1ccccc1)c1ccccc1)c1ccccc1 (configuration not stated)" result="9.87 µM"
compound="O=P1(N(CCCl)CCCl)NCCCO1 (configuration not stated) [CYCLOPHOSPHAMIDE ANHYDROUS]" result="> 30 µM"

According to the records, this compound C#CCN(C)Cc1ccccc1 displays AC50 of > 30 µM

According to the records, this compound CC(C)(C)NCC(O)COc1ccccc1C#N (configuration not stated) displays AC50 of > 30 µM

According to the records, this compound O=c1[nH]c2ccccc2n1CCN1CCN(c2cccc(C(F)(F)F)c2)CC1 displays AC50 of 0.286 µM

According to the records, this compound COc1cc(C(=O)NCc2ccc(OCCN(C)C)cc2)cc(OC)c1OC [TRIMETHOBENZAMIDE] displays AC50 of 0.71 µM

According to the records, this compound CN1CCC(N(Cc2cccs2)c2ccccc2)CC1 displays AC50 of 4.46 µM

According to the records, this compound C[C@H](Nc1ncnc2[nH]cnc12)c1cc2cccc(Cl)c2c(=O)n1-c1ccccc1 displays AC50 of > 30 µM

###

Measured AC50 by item
Target: UniProt P34998
Sequence (P34998 whole entry): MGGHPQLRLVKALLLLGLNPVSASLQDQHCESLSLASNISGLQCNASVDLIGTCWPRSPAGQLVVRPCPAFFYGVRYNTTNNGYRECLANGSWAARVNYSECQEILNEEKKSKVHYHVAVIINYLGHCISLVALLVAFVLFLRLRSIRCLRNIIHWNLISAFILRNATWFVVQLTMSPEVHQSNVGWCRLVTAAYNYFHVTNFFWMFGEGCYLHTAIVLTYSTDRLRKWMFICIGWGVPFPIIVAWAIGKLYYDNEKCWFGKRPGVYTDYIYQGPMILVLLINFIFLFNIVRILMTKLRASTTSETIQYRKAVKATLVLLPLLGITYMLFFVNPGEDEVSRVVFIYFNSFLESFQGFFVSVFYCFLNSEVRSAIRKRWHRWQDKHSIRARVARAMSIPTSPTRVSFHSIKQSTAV

compound="CCN(CC)C(C)C(=O)c1ccccc1 (stereo not drawn)" measured_metric=AC50 result="> 30 µM"
compound=CCN(CC)CC(=O)Nc1c(C)cccc1C measured_metric=AC50 result="> 30 µM"

The record that follows has no AC50 shown yet.
According to the records, this compound CN1C(=O)CN=C(c2ccccc2F)c2cc([N+](=O)[O-])ccc21 displays AC50 of > 30 µM

###

Biological target: Neuropeptide Y receptor type 1 (Homo sapiens, UniProt P25929); note: assay procedure not described here
Sequence (P25929 whole entry): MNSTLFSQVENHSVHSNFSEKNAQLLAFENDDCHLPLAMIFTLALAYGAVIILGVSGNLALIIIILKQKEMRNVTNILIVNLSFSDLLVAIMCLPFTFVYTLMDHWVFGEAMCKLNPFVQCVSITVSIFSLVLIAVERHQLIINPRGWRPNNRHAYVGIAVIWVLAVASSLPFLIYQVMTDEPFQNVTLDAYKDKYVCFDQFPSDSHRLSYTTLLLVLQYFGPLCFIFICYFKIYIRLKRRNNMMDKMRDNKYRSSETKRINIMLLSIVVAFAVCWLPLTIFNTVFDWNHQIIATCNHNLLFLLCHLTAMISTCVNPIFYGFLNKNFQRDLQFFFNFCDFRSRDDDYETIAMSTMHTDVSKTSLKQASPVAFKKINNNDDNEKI
Measured metric: AC50

Example entries begin here.
compound=Oc1cc(O)c2c(c1)O[C@H](c1ccc(O)c(O)c1)[C@@H](O)C2 result="> 30 µM"
compound="CCOC(=O)C1=C(C)NC(C)=C(C(=O)OC)C1c1cccc(Cl)c1Cl (stereo not given)" result="> 30 µM"

According to the records, this compound Cc1cccc(Nc2ccncc2S(=O)(=O)NC(=O)NC(C)C)c1 [TORSEMIDE] displays AC50 of > 30 µM

According to the records, this compound CN(C)CCC(O)(c1ccccc1)c1ccccc1Cl (stereo not given) displays AC50 of > 10 µM

According to the records, this compound CC(C(=O)O)c1ccc(C(=O)c2ccccc2)s1 (stereo not given) displays AC50 of > 10 µM

According to the records, this compound N[C@@H](Cc1cc(I)c(Oc2cc(I)c(O)c(I)c2)c(I)c1)C(=O)O displays AC50 of > 30 µM

According to the records, this compound CN(C)CCOCC(=O)NC12CC3CC(CC(C3)C1)C2 displays AC50 of > 30 µM

According to the records, this compound CC(C)(N)Cc1ccccc1 displays AC50 of > 30 µM

According to the records, this compound CC1CC(OC(=O)C(O)c2ccccc2)CC(C)(C)C1 (stereo not given) [CYCLANDELATE] displays AC50 of > 10 µM

According to the records, this compound CNC1(C)C2CCC(C2)C1(C)C (stereo not given) displays AC50 of > 10 µM
